Target: recombinant GST-tagged MDM2 (Homo sapiens, UniProt Q00987)
Sequence (Q00987 whole entry): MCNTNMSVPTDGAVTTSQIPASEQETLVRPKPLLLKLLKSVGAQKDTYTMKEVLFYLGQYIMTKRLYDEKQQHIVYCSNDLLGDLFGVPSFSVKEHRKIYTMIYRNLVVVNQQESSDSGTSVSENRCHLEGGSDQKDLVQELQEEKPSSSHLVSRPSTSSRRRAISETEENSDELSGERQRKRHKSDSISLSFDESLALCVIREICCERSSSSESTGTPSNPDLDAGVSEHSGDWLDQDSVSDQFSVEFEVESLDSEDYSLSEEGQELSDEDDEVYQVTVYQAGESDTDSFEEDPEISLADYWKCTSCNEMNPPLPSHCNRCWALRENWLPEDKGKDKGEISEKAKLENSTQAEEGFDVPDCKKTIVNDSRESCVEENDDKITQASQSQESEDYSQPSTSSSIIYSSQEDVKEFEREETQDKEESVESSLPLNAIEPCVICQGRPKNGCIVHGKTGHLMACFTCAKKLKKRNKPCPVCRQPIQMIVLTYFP
Assay: HTRF assay of interaction between p53 peptide and GST-tagged MDM2
Settings: inhibition of GST-MDM2 (160 ng/ml) binding to biotinylated p53-peptide
Measured IC50 accompanies every entry in the list below.
# answer = value followed by unit

Worked cases, answers included:
compound	assay target	IC50
CCOc1cc(Cl)c(S(C)(=O)=O)cc1C1=N[C@@](C)(c2ccc(Cl)cc2)[C@@](C)(c2ccc(Cl)cc2)N1C(=O)N1CCC(NC(=O)NC2CCS(=O)(=O)C2)CC1 (some centres unmarked)	recombinant GST-tagged MDM2 (Homo sapiens, UniProt Q00987)	6.3 nM
CCOc1cc(Cl)c(S(C)(=O)=O)cc1C1=N[C@@](C)(c2ccc(Cl)cc2)[C@@](C)(c2ccc(Cl)cc2)N1C(=O)N1CCN(CC(=O)N(CCOC(C)C)CCOC(C)C)CC1	recombinant GST-tagged MDM2 (Homo sapiens, UniProt Q00987)	5.5 nM
CCOc1cc(Cl)c(S(C)(=O)=O)cc1C1=N[C@@](C)(c2ccc(Cl)cc2)[C@@](C)(c2ccc(Cl)cc2)N1C(=O)N1CCC(NS(C)(=O)=O)CC1	recombinant GST-tagged MDM2 (Homo sapiens, UniProt Q00987)	5.3 nM
CCOc1cc(Cl)c(S(C)(=O)=O)cc1C1=N[C@@](C)(c2ccc(Cl)cc2)[C@@](C)(c2ccc(Cl)cc2)N1C(=O)N1CCC(NC(=O)NC(C)C)CC1	recombinant GST-tagged MDM2 (Homo sapiens, UniProt Q00987)	4.5 nM

IC50 recorded for this compound, "CCOc1cc(Cl)c(S(C)(=O)=O)cc1C1=N[C@@](C)(c2ccc(Cl)cc2)[C@@](C)(c2ccc(Cl)cc2)N1C(=O)N1CCC(NC(C)=O)CC1" , is 4.8 nM

---

Biological target: GST-tagged MDMX (Homo sapiens, UniProt O15151)
Sequence (O15151 1-490): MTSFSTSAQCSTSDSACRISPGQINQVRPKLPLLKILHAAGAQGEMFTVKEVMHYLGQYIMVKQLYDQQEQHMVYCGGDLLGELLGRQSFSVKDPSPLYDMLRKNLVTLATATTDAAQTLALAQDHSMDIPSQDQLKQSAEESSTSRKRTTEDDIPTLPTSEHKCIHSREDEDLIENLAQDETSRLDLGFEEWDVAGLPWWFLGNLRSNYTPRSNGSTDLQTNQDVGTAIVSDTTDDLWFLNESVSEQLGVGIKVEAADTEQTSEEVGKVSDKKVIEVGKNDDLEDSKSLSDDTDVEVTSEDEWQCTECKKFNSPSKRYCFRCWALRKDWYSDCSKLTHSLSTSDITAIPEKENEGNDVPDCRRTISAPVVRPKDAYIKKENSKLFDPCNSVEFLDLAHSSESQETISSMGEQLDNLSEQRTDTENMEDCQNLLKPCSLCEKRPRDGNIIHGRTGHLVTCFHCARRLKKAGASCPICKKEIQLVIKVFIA
Strictly below 0.2 µM in IC50: Met. Otherwise: Not met.

Previously resolved entries follow.
> print(dat)
                            smiles.notation  group.label
1  CCOc1cc(Cl)c(S(C)(=O)=O)cc1C1=N[C@@](C)(c2ccc(Cl)cc2)[C@@](C)(c2ccc(Cl)cc2)N1C(=O)N1CCN(CCS(=O)(=O)CC)CC1      Not met
2  CCOc1cc(Cl)c(S(C)(=O)=O)cc1C1=N[C@@](C)(c2ccc(Cl)cc2)[C@@](C)(c2ccc(Cl)cc2)N1C(=O)N1CCN(S(C)(=O)=O)CC1      Not met
3  CC(C)Oc1cc(Cl)c(S(=O)(=O)NC(C)(C)C)cc1C1=N[C@@](C)(c2ccc(Cl)cc2)[C@@](C)(c2ccc(Cl)cc2)N1C(=O)N1CCN(CCCS(C)(=O)=O)CC1      Not met
4  CC(C)Oc1cc(Cl)c(S(N)(=O)=O)cc1C1=N[C@@](C)(c2ccc(Cl)cc2)[C@@](C)(c2ccc(Cl)cc2)N1C(=O)N1CCN(CCCS(C)(=O)=O)CC1      Not met

IN: is_below(IC50, 0.2 µM) for "CC(C)Oc1cc(Cl)c(S(C)(=O)=O)cc1C1=N[C@@](C)(c2ccc(Cl)cc2)[C@@](C)(c2ccc(Cl)cc2)N1C(=O)N1CCC(CC(N)=O)CC1" ?
OUT: Met
